Origin of values: paper PMC6197257

# target of assay: rat 11β-HSD2 (Rattus norvegicus, UniProt P50233)
# Construct: kidney microsome fractions were obtained from male Wistar rats (7-week-old); from tissue; host or cells: rat kidney microsome fraction (male Wistar rats)
# Sequence (P50233 1-400): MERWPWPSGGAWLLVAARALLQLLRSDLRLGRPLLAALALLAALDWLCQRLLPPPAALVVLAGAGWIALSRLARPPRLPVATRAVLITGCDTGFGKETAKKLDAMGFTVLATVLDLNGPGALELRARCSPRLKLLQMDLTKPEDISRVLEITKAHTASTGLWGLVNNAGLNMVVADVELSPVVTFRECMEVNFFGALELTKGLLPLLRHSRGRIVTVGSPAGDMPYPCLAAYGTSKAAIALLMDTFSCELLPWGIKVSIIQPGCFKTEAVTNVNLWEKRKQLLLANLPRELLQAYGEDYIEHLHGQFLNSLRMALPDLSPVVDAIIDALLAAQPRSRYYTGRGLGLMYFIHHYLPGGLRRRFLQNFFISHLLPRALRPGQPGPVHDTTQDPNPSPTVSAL
# method description: in vitro 11β-HSD2 activity using rat kidney microsomes
# Type: biochemical
# cond: kidney microsomes of male Wistar rats, 37 °C, 30 min
# Protocol: Assays were conducted as described by Diederich et al.[23] with slight modifications as described in our previous study. Briefly, kidney microsome fractions were obtained from male Wistar rats (7-week-old). […] Spots corresponding to cortisone (Rf value, 0.43) were detected under UV light, scraped into a scintillation vial containing Clear-sol®, and the radioactivity was measured using a liquid scintillation counter (Hitachi Aloka Medical, Tokyo, Japan). […]
pIC50: −log10 of the molar value.
attribute measured: pIC50

- CC1(C(=O)OC2OC(C(=O)O)C(O)C(O)C2O)CC(O)C2(C)CCC3(C)C(=CC(=O)C4C5(C)CCC(OS(=O)(=O)O)C(C)(C)C5CCC43C)C2C1 (stereo not shown) [Compound 1]: 5.70

====

# method description: pharmacokinetics in EHBRs orally treated with GA (200 mg/kg), LC-MS/MS
# Type: in vivo, Eisai Hyperbilirubinemia rats (EHBRs)
# cond: Eisai Hyperbilirubinemia rats (EHBR), rat, plasma; female EHBRs, GA 200 mg/kg oral, 12 h; read-out: plasma concentration 12 h after GA treatment
attribute measured: concentration at 12 h

* CC1(C(=O)OC2OC(C(=O)O)C(O)C(O)C2O)CC(O)C2(C)CCC3(C)C(=CC(=O)C4C5(C)CCC(OS(=O)(=O)O)C(C)(C)C5CCC43C)C2C1 (centres unmarked) [Compound 1] | 5.3 µM
* CC1(C)[C@@H](O)CC[C@]2(C)[C@H]3C(=O)C=C4[C@@H]5C[C@@](C)(C(=O)O)CC[C@]5(C)CC[C@@]4(C)[C@]3(C)CC[C@@H]12 [GA, 18β-glycyrrhetinic acid] | 5.9 µM
